# measurementTarget: T1, human IL6R-Fc protein (human, biotin-labeled in the ELISAs (sites not given))
# T1 construct: In house made; also called biotin-labeled human IL6R-Fc protein
# T1 sequence (chain, as listed by the source limits assumed): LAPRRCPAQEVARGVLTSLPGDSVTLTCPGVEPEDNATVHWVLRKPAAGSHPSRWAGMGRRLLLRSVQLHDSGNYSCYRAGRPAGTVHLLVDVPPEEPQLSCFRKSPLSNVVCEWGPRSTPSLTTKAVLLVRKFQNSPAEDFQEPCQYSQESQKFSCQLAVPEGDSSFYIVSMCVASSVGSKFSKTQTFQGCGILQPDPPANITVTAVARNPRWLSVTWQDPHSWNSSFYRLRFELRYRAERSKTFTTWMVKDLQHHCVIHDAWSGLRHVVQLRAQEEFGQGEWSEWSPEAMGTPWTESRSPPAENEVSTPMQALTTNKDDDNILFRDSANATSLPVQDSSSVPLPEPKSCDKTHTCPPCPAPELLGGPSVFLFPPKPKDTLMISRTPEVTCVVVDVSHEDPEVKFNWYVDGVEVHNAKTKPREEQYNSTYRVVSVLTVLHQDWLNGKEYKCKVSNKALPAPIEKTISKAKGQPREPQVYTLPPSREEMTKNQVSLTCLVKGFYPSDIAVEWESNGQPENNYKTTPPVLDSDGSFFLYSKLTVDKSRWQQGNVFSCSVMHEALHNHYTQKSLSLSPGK
# testProtocol: benchmark blocking ELISA: antibody pre-incubated with biotin-labeled human IL6R-Fc, added to plate-coated Tocilizumab (competitor: Tocilizumab)
assayMetric: pIC50
Answers are plain numbers, as −log10 of the molar value.

-- ask Look at this binder and give its reported pIC50. mouse anti-IL6R monoclonal antibody 1H7 (antibody, V domains shown, Mouse hybridoma mAb) VH: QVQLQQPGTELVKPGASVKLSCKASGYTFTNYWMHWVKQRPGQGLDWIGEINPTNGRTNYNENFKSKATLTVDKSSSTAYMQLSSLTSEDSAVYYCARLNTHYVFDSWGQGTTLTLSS VL: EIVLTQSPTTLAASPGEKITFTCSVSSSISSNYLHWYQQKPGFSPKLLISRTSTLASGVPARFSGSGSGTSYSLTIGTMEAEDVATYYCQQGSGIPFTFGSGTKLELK
-- reply 9.73
